Origin of measurements: ChEMBL document CHEMBL5344412

Target: Phospholipid hydroperoxide glutathione peroxidase GPX4 (Homo sapiens)
Sequence (whole entry): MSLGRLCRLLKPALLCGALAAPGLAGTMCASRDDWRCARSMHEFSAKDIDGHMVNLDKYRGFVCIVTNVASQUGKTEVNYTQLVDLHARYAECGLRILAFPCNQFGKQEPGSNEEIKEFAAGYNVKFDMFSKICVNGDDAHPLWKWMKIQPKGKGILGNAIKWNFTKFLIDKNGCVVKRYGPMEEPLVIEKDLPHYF
Assay: Induction of GPX4 degradation in human HT-1080 cells at 100 nM incubated for 6 hrs relative to control
Assay type: cell-based
experimental-readout: Activity (%)
Response body: numeric value in %, unit text excluded.

Before answering, review these 5 worked examples.
smiles_representation=COC(=O)[C@H]1Cc2c([nH]c3ccccc23)[C@H](c2ccc(C(=O)N3CCN(CCCCCCCCCCCCCN[C@H](C(=O)N4C[C@H](O)C[C@H]4C(=O)N[C@@H](C)c4ccc(-c5scnc5C)cc4)C(C)(C)C)CC3)cc2)N1C(=O)CCl experimental_readout=Activity unit_of_measure=% value_observed=63
smiles_representation=COC(=O)[C@H]1Cc2c([nH]c3ccccc23)[C@H](c2ccc(C(=O)N3CCN(CCCCCCCN[C@H](C(=O)N4C[C@H](O)C[C@H]4C(=O)N[C@@H](C)c4ccc(-c5scnc5C)cc4)C(C)(C)C)CC3)cc2)N1C(=O)CCl experimental_readout=Activity unit_of_measure=% value_observed=36
smiles_representation=COC(=O)[C@H]1Cc2c([nH]c3ccccc23)[C@H](c2ccc(C(=O)N3CCN(CCCCCCCCCCCCCCN[C@H](C(=O)N4C[C@H](O)C[C@H]4C(=O)N[C@@H](C)c4ccc(-c5scnc5C)cc4)C(C)(C)C)CC3)cc2)N1C(=O)CCl experimental_readout=Activity unit_of_measure=% value_observed=55
smiles_representation=COC(=O)[C@H]1Cc2c([nH]c3ccccc23)[C@H](c2ccc(C(=O)N3CCN(CCCCCCCCCCCCN[C@H](C(=O)N4C[C@H](O)C[C@H]4C(=O)N[C@@H](C)c4ccc(-c5scnc5C)cc4)C(C)(C)C)CC3)cc2)N1C(=O)CCl experimental_readout=Activity unit_of_measure=% value_observed=60
smiles_representation=COC(=O)[C@H]1Cc2c([nH]c3ccccc23)[C@H](c2ccc(C(=O)N3CCN(CCCCCCCCCN[C@H](C(=O)N4C[C@H](O)C[C@H]4C(=O)N[C@@H](C)c4ccc(-c5scnc5C)cc4)C(C)(C)C)CC3)cc2)N1C(=O)CCl experimental_readout=Activity unit_of_measure=% value_observed=39

Below: the item to evaluate.
Input line: Param readout = Activity; param system = Phospholipid hydroperoxide glutathione peroxidase GPX4 (Homo sapiens); param query = "COC(=O)[C@H]1Cc2c([nH]c3ccccc23)[C@H](c2ccc(C(=O)N3CCN(CCCCCCCCCCCN[C@H](C(=O)N4C[C@H](O)C[C@H]4C(=O)N[C@@H](C)c4ccc(-c5scnc5C)cc4)C(C)(C)C)CC3)cc2)N1C(=O)CCl" ; response: value
Output line: 52
